Tested on: PPARg:RXRa DBDmut IVT, anti-RXR (DBD mutation: RXRa K156A/R161A, NR concentration 270 nM, RXRa partner concentration 90 nM)
Assay: PBM binding z-score (relative to random genomic background probes); higher = stronger binding; sequences stand for … in GC…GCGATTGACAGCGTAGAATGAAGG
OBSERVED_PROPERTY: PBM binding z-score

>  <RESIDUE_CODES>
TTACGAAGGTGAGCTGAGGTCGTTGATCCAACTC

>  <PBM binding z-score>
0.758

$$$$

Per the records, this sequence ( `GCTAGTTGGTCAGGAAAAGGTCACACACCGGTCG` ) has PBM binding z-score equal to 0.896

Per the records, this sequence ( `GCAGACAGGTGAAACGGAGGTAACTCAGGGTGGC` ) has PBM binding z-score equal to 1.09

Per the records, this sequence ( `ATCTCTAGGTAAGACGCAGTTCAGTGAAGAACGC` ) has PBM binding z-score equal to 1.69

Per the records, this sequence ( `CCAGACAGGTGAGAAGGTAACTCGGCCTCGATTA` ) has PBM binding z-score equal to 1.02

Per the records, this sequence ( `CATACAGGGTCAGCTAGGCCAGAGTGGGGACGGC` ) has PBM binding z-score equal to 1.06

Per the records, this sequence ( `CTACCAAGGTGATCAAGGTCGTTGATTACTATTC` ) has PBM binding z-score equal to 1.11

Per the records, this sequence ( `CGAACTAGGTCAGAACACGACAGTGAAGGATGAT` ) has PBM binding z-score equal to 7.06

Per the records, this sequence ( `ATCTCTAGGTAACAAGTTCACTGAAAGAGAGGAC` ) has PBM binding z-score equal to 3.4
